# Tested on: Echinochloa crus-galli
# METHOD SUMMARY: greenhouse post-emergence treatment, ECHCG
# Format: in vivo
# TEST PARAMETERS: 500 g/ha, scale 0-100
Each item that follows carries a reported [%] damage to weed VII (ECHCG).
Numbers only here, please. The scale is %.

Worked cases, answers included:
| COMPOUND | [%] damage to weed VII (ECHCG) [%] |
| --- | --- |
| CCSc1c(Cl)cc(Cl)c(C(=O)Nc2ncnn2C)c1Cl | 98 |
| CCCS(=O)(=O)c1c(Cl)cc(F)c(C(=O)Nc2ncnn2C)c1Cl | 98 |
| CC[S+]([O-])c1c(Cl)cc(Cl)c(C(=O)Nc2nnnn2C)c1Cl (stereo not drawn) | 98 |
| COCCOc1ccc(Cl)c(C(=O)Nc2nnnn2C)c1Cl | 98 |

Now turn to the next compound.
(Q) API: value(readout=[%] damage to weed VII (ECHCG), system=Echinochloa crus-galli) for record "CCSc1c(Cl)cc(F)c(C(=O)Nc2nnnn2CC)c1Cl"
(A) 100
